experimental.target: BTK (Homo sapiens)
Sequence (Q06187 402-655 limits assumed): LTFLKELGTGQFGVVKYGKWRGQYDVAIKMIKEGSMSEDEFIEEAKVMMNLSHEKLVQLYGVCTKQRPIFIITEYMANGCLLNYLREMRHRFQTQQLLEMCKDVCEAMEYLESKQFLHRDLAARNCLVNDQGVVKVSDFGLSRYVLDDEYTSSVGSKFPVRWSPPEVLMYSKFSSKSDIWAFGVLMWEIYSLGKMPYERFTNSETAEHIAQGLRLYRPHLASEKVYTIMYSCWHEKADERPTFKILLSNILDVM
experimental.details: biochemical
test.parameters: read-out: BTK inhibition (%), 0.75 uM BTK, […] probe 3l, 15 min preincubation
Kindly supply the reported inhibition at 10 µM values for the records listed here.
Give bare numbers, in %.

These solved cases illustrate the format of a correct answer.
[
  {
    "compound": "O=C(/C=C/c1ccc(O)c(O)c1/C=C/c1ccc(O)c(O)c1)O[C@H](Cc1ccc(O)c(O)c1)C(=O)O [PCM-0216354]",
    "scale.unit": "%",
    "inhibition at 10 µM": 30.9
  },
  {
    "compound": "CC(COc1ccccc1)N(CCCl)Cc1ccccc1 (centres unmarked) [PCM-0086553]",
    "scale.unit": "%",
    "inhibition at 10 µM": 17.1
  },
  {
    "compound": "CCCNC[C@]1(O)[C@H](C)O[C@@H](O[C@H]2[C@H](C)[C@@H](O[C@@H]3O[C@H](C)C[C@H](N(C)C)[C@H]3O)[C@](C)(O)C[C@@H](C)CN[C@H](C)[C@@H](O)[C@](C)(O)[C@@H](CC)OC(=O)[C@@H]2C)C[C@@]1(C)OC [PCM-0214927]",
    "scale.unit": "%",
    "inhibition at 10 µM": -26.5
  },
  {
    "compound": "CC(C)=CC[C@@H](O)C1=CC(=O)c2c(O)ccc(O)c2C1=O [PCM-0215694]",
    "scale.unit": "%",
    "inhibition at 10 µM": 69.7
  },
  {
    "compound": "O=C(O)c1cc(=O)c2c(OCC(O)COc3cccc4oc(C(=O)O)cc(=O)c34)cccc2o1 [PCM-0086401]",
    "scale.unit": "%",
    "inhibition at 10 µM": 2.6
  },
  {
    "compound": "Nc1cc(N)c(N)cc1N [PCM-0216082]",
    "scale.unit": "%",
    "inhibition at 10 µM": 31.7
  }
]

Batch: inhibition at 10 µM for all items listed.
1. CN(C)CCOc1ccc(-c2nc(-c3ccc4c(c3)CCC4=NO)c(-c3ccncc3)[nH]2)cc1 [PCM-0095262]
2. Cc1nn(C)c(COc2ccc(N3CCN(S(=O)(=O)N(C)C)CC3)cc2)c1-c1cccc2c(CCCOc3cccc4ccccc34)c(C(=O)O)n(CCN3CCOCC3)c12 [PCM-0215538]
3. Cc1oc2nc3c(c(NC(=O)CN4CCCC4=O)c2c1C)CCCC3 [PCM-0216053]
4. C=C1C[C@@]23CC[C@H]4[C@@](C)(CCC[C@@]4(C)C(=O)O[C@@H]4O[C@H](CO)[C@@H](O)[C@H](O)[C@H]4O)[C@@H]2CC[C@]1(O[C@@H]1O[C@H](CO)[C@@H](O)[C@H](O)[C@H]1O[C@@H]1O[C@H](CO)[C@@H](O)[C@H](O)[C@H]1O)C3 [PCM-0216121]
5. COc1cc(OC)c(NC(=O)Nc2cc(C)on2)cc1Cl [PCM-0095491]

Ans.
-2.1
5.1
12.4
-27.8
10.9

Fill in inhibition at 10 µM for each of the 3 compounds listed.
1. CC(NC(=O)[C@H](Cc1ccccc1)NC(=O)OCc1ccccc1)C(=O)CF (some centres unmarked) [PCM-0215313]
2. CCN(CC)Cc1ccc2cc(COC(=O)Nc3ccc(C(=O)NO)cc3)ccc2c1 [PCM-0095219]
3. COC(=O)C[C@](O)(CCCC(C)(C)O)C(=O)O[C@@H]1C(OC)=C[C@]23CCCN2CCc2cc4c(cc2[C@H]13)OCO4 [PCM-0216341]

Ans.
[-3.1, -10.1, 4.6]
